# key: entry, value: TGI
Test system: SR leukemia
Assay: NCI tumour cell line growth inhibition, 48 h
Measured Endpoint: TGI

> print(dat)
                                    molecule  measured.endpoint        val
 1  COC(=O)C1C(=O)NC2(C)CC1c1ccccc1O2 (stereo unspecified)                TGI   > 100 µM
 2  Cc1nc(Nc2ccc(Cl)c(Cl)c2)sc1C(/C=C/c1ccc2c(c1)OCO2)=N/Nc1ccc([N+](=O)[O-])cc1[N+](=O)[O-]                TGI   > 100 µM
 3     COc1ccc(Nc2nc(N)c(C(=O)c3ccco3)s2)cc1                TGI  > 33.8 µM
 4     O=c1[nH]c2ccccc2c(=O)n1/N=C\c1ccccc1O                TGI   > 100 µM
 5  O=C(NCCOC(=O)CCCCCCCCC(=O)OCCNC(=O)NC(=O)c1cn(Cc2ccccc2)c(=O)[nH]c1=O)NC(=O)c1cn(Cc2ccccc2)c(=O)[nH]c1=O                TGI   > 100 µM
 6               COc1cc2ccc(CC(=O)O)cc2cc1OC                TGI   > 100 µM
 7  CNC1CC(n2cc(C)c(=O)[nH]c2=O)OC1CO (stereo unspecified)                TGI   > 100 µM
 8                 CNc1ccc(CSc2ccc(C)cc2)cc1                TGI    90.1 µM
 9  CC1=NN(C(=O)CC(=O)Nc2cccc(C)c2)C(=O)C1N=Nc1ccc(C(=O)O)cc1 (stereo unspecified)                TGI   > 100 µM
10  O=[N+]([O-])/C=C/c1cn(CCCCCCCCn2cc(/C=C/[N+](=O)[O-])c3ccccc32)c2ccccc12                TGI    > 10 µM
11  CC(=O)CCN1CC2CN=NC2(C#N)C1 (stereo unspecified)                TGI   > 100 µM
12  C=C(CCC(=O)N(CCc1c[nH]c2ccccc12)C(=O)c1ccccc1CSCC)C(=O)OC                TGI   > 100 µM
13  CN(C)CCC(/C=C/c1ccccc1)=N\Nc1c(F)c(F)c(F)c(F)c1F                TGI   > 100 µM
14  O=[N+]([O-])C(/C=C(\Cl)[N+](=O)[O-])=C(Nc1ccccc1)Nc1ccccc1                TGI    6.02 µM
15  COc1ccccc1CNCCCN1C(=O)c2ccc3c4c(ccc(c24)C1=O)C(=O)N(CCCNCCCCN)C3=O                TGI    0.82 µM
16  N=C(N)c1ccc(N=Nc2c(O)c(C(=O)Nc3ccccc3)cc3ccccc23)cc1                TGI  > 75.8 µM
17               c1csc(-c2cc(-c3ccsc3)cs2)c1                TGI   > 100 µM
18  NCC[PH+](c1ccccc1)c1ccccc1.NCC[PH+](c1ccccc1)c1ccccc1.[Cl-].[Pt+4]                TGI   > 100 µM
19  O=C(CCCCCCCCC(=O)N1C(=O)CC(=O)N(c2ccc(Cl)cc2)C1=S)N1C(=O)CC(=O)N(c2ccc(Cl)cc2)C1=S                TGI    83.7 µM
20                     N#Cc1nc(-c2ccsc2)oc1N                TGI   > 100 µM
21  Nc1nc2c(ncn2C2OC(CO)C(O)C2O)c(=O)[nH]1 (stereo unspecified)                TGI   > 100 µM
22      O=C(O)c1cc2ccc(Cl)cc2c(O)c1C1=CCCCC1                TGI   > 100 µM
23  c1ccc(-c2nc3ccccc3[nH]2)c(OCCCCCOc2ccccc2-c2nc3ccccc3[nH]2)c1                TGI    13.1 µM
24  COc1cc([N+](=O)[O-])c(S(=O)(=O)O)cc1-[n+]1nc(C(=O)Nc2ccccc2)nn1-c1ccc([N+](=O)[O-])c(S(=O)(=O)[O-])c1                TGI   > 100 µM
25  COC(=O)c1c2c(cc3c1CC1(Cc4cc5c(cc4C1)CCCC5)C3)CCCC2                TGI   > 100 µM
26          C/C(=C\C(=O)O)C(=O)N(C)c1ccccc1I                TGI   > 100 µM
27  COc1cc2c(c(OC)c1OC)-c1ccc(SC)c(=O)cc1C(CC(=O)Oc1ccccc1F)C2 (stereo unspecified)                TGI   > 7.5 µM
28  Cc1cc(C)n(C(=CC(=O)C(Cl)Cl)n2nc(C)cc2C)n1                TGI    5.69 µM
29      N#CC(C#N)=C/C=C/c1ccccc1[N+](=O)[O-]                TGI    > 10 µM
30  Cc1c(C)c2c(c(N)c1C#N)C(=O)N(NC(=S)Nc1ccccc1)C2=O                TGI    83.5 µM
31  CN(Cc1cnc2nc(N)nc(N)c2n1)c1c(Cl)cc(C(=O)NC(CCC(=O)O)C(=O)O)cc1Br (stereo unspecified)                TGI   > 100 µM
32  Clc1ccc(C2=CC(c3ccccc3)N3C(=N[C@H]4CCCC[C@@H]43)N2)cc1 (stereo partly specified)                TGI    5.98 µM
33        CSc1ccc2c(c1)N(CCCN(C)C)c1ccccc1S2                TGI    19.2 µM
34                       CN(Cc1ccccc1)C(=S)S                TGI    59.7 µM
35        C[N+](C)([O-])C12CC3CC(CC(C3)C1)C2                TGI   > 100 µM
36  O=C(Nc1c(Cl)cc([N+](=O)[O-])cc1Cl)C(=O)C(C(=O)c1ccncc1)C1OC(=O)c2ccccc21 (stereo unspecified)                TGI   > 100 µM
37  COc1cc2c(cc1OC)C(C1CC1)ON(C)CC2 (stereo unspecified)                TGI   > 100 µM
38  CCCCCCCCCCCCCCCCOC[C@H](COC(c1ccccc1)(c1ccccc1)c1ccccc1)O[P+](=S)OC (stereo partly specified)                TGI   > 100 µM
39  Cc1ccccc1NC(=O)C(=O)CC(=O)c1sc(-n2nc(-c3ccccc3)cc2-c2ccccc2)nc1C                TGI   > 100 µM
40   Cc1ccc(-n2cc(/C(N)=N/O)c3ccccc3c2=O)cc1                TGI   > 100 µM
41              CN(C)CCCNC(=O)N/N=C/c1ccccn1                TGI    > 10 µM
